runDescription: recombinant UMI read abundance after kanamycin selection (control-corrected) (log10(CPM+1)); higher = more efficient recombination; extreme values may be limits of the assay; sequences stand for … in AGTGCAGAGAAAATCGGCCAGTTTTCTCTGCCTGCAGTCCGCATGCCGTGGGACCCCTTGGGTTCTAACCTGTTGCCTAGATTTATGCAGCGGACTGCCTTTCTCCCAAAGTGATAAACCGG…AGGTTGGTTTCACT; site = the 11-nt donor;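 further: IS621 bridge recombinase in Escherichia coli cells against a fixed T5 target plasmid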
Provide the recorded recombinant UMI read abundance (log10) for the entries that follow.

Endpoint output: recombinant UMI read abundance (log10) of TCTACACCATGGACCGGTTTTCCCGGTAATCCGTATTTGAC (site TATACACCTGT) . Value?
0.00982

Endpoint output: recombinant UMI read abundance (log10) of GTGTAAACATGGACCGGTTTTCCCGGTAATCCGTATTTGCT (site GTGTAAACTAG) . Value?
2.89

Endpoint output: recombinant UMI read abundance (log10) of TCCACCGCATGGACCGGTTTTCCCGGTAATCCGTATTTGCT (site TCCACCGCTTG) . Value?
0

Endpoint output: recombinant UMI read abundance (log10) of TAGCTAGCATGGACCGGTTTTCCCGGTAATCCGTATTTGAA (site TCGCTAGCTTT) . Value?
0.00871

Endpoint output: recombinant UMI read abundance (log10) of GTGCAGGCATGGACCGGTTTTCCCGGTAATCCGTATTTGTG (site GTGCAGGCTCA) . Value?
1.17

Endpoint output: recombinant UMI read abundance (log10) of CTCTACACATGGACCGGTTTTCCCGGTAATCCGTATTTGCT (site CTCTACACTGG) . Value?
1.37

Endpoint output: recombinant UMI read abundance (log10) of TAATGAGCATGGACCGGTTTTCCCGGTAATCCGTATTTGTG (site TAATGAGCTCG) . Value?
1.54

Endpoint output: recombinant UMI read abundance (log10) of GCTTCTACATGGACCGGTTTTCCCGGTAATCCGTATTTGTA (site GCTTCTACTTA) . Value?
0.541

Endpoint output: recombinant UMI read abundance (log10) of CAGGGTCCATGGACCGGTTTTCCCGGTAATCCGTATTTGGA (site CAGGGTCCTTC) . Value?
0.288

Endpoint output: recombinant UMI read abundance (log10) of GCATGCACATGGACCGGTTTTCCCGGTAATCCGTATTTGTA (site GGATGCACTTA) . Value?
0.364

Endpoint output: recombinant UMI read abundance (log10) of CCATGTGCATGGACCGGTTTTCCCGGTAATCCGTATTTGAT (site CCACGTGCTAT) . Value?
0.215

Endpoint output: recombinant UMI read abundance (log10) of GATCGGACATGGACCGGTTTTCCCGGTAATCCGTATTTGAC (site GATTGGACTGT) . Value?
0

Endpoint output: recombinant UMI read abundance (log10) of TCGAGTCCATGGACCGGTTTTCCCGGTAATCCGTATTTGAA (site TCGAGTCCTTT) . Value?
0.307

Endpoint output: recombinant UMI read abundance (log10) of CGGGTACCATGGACCGGTTTTCCCGGTAATCCGTATTTGAT (site CGGGGACCTAT) . Value?
0

Endpoint output: recombinant UMI read abundance (log10) of TCCCATCCATGGACCGGTTTTCCCGGTAATCCGTATTTGGC (site TCCCATCCTGC) . Value?
0

Endpoint output: recombinant UMI read abundance (log10) of TGCATCCCATGGACCGGTTTTCCCGGTAATCCGTATTTGAA (site TGCATCCCTTT) . Value?
0.335

Endpoint output: recombinant UMI read abundance (log10) of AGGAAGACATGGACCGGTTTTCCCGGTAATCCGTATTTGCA (site AAGTAGACTTG) . Value?
1.23

Endpoint output: recombinant UMI read abundance (log10) of CGAGGACCATGGACCGGTTTTCCCGGTAATCCGTATTTGTG (site CGAGGACCTCC) . Value?
0.0189

Endpoint output: recombinant UMI read abundance (log10) of ATGTCGTCATGGACCGGTTTTCCCGGTAATCCGTATTTGTA (site ATGTCGTCTTA) . Value?
1.95

Endpoint output: recombinant UMI read abundance (log10) of GAAGATCCATGGACCGGTTTTCCCGGTAATCCGTATTTGTT (site GAAGATTCTAA) . Value?
0.0204

Endpoint output: recombinant UMI read abundance (log10) of CGGGAAACATGGACCGGTTTTCCCGGTAATCCGTATTTGCA (site CAGGAAACTTG) . Value?
2

Endpoint output: recombinant UMI read abundance (log10) of AGACGAACATGGACCGGTTTTCCCGGTAATCCGTATTTGTC (site AAACGAACTGA) . Value?
0

Endpoint output: recombinant UMI read abundance (log10) of ATATGCACATGGACCGGTTTTCCCGGTAATCCGTATTTGTA (site CTATGCACTTA) . Value?
0.913

Endpoint output: recombinant UMI read abundance (log10) of CACGGCCCATGGACCGGTTTTCCCGGTAATCCGTATTTGAT (site CACGGCCCTAC) . Value?
0.0396

Endpoint output: recombinant UMI read abundance (log10) of TCAGTTTCATGGACCGGTTTTCCCGGTAATCCGTATTTGCA (site ACAGTATCTTG) . Value?
0.0288

Endpoint output: recombinant UMI read abundance (log10) of CGGACTTCATGGACCGGTTTTCCCGGTAATCCGTATTTGCT (site CGGACATCTAG) . Value?
0.905

Endpoint output: recombinant UMI read abundance (log10) of TAGAACACATGGACCGGTTTTCCCGGTAATCCGTATTTGCA (site TAGAATACTTG) . Value?
1.87

Endpoint output: recombinant UMI read abundance (log10) of ACACGAGCATGGACCGGTTTTCCCGGTAATCCGTATTTGTC (site ACACGAGCTGA) . Value?
2.61

Endpoint output: recombinant UMI read abundance (log10) of TTGGCTGCATGGACCGGTTTTCCCGGTAATCCGTATTTGTG (site TTCGCTGCTCA) . Value?
0.0142

Endpoint output: recombinant UMI read abundance (log10) of CTAGAGGCATGGACCGGTTTTCCCGGTAATCCGTATTTGTT (site CTAGAGGCTAA) . Value?
1.82

Endpoint output: recombinant UMI read abundance (log10) of CCCCCTACATGGACCGGTTTTCCCGGTAATCCGTATTTGAG (site CACCCTACTCT) . Value?
0.0202

Endpoint output: recombinant UMI read abundance (log10) of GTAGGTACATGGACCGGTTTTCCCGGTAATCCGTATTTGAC (site GTAGGTACTGA) . Value?
1.23

Endpoint output: recombinant UMI read abundance (log10) of AAGAACACATGGACCGGTTTTCCCGGTAATCCGTATTTGCA (site AAGAACACTTG) . Value?
2.85

Endpoint output: recombinant UMI read abundance (log10) of TCTTTGGCATGGACCGGTTTTCCCGGTAATCCGTATTTGTG (site TATTTGGCTCA) . Value?
0.0246

Endpoint output: recombinant UMI read abundance (log10) of ACAGTAGCATGGACCGGTTTTCCCGGTAATCCGTATTTGCA (site ACAGTACCTTG) . Value?
0

Endpoint output: recombinant UMI read abundance (log10) of TTCGGGCCATGGACCGGTTTTCCCGGTAATCCGTATTTGCC (site TTCGGGCCTGG) . Value?
0
